EXPERIMENT: Intrinsic cytotoxicity against mouse NIH/3T3 cells by MTT assay
Type: cell-based, NIH3T3
In this section, each of the compounds is paired with its reported CC50.

The cases that follow already have their CC50 on record.
- COMPOUND: "CC(=O)O[C@H]1CC[C@](C)(OC(C)=O)[C@]23OC(C)(C)[C@H]([C@H](OC(=O)/C=C/c4ccccc4)[C@H](OC(=O)c4ccccc4)[C@]12C)[C@H]3OC(C)=O"
  CC50: "> 60 µM"
- COMPOUND: "COC(=O)CCCC(=O)O[C@@H]1[C@H]2[C@H](OC(=O)/C=C/c3ccccc3)[C@H](OC(=O)c3ccccc3)[C@]3(C)[C@@H](OC(C)=O)CC[C@](C)(O)[C@@]13OC2(C)C"
  CC50: "> 60 µM"

# ---- query compound ----
Report CC50, nothing else, for this compound: CCC(C)C(=O)O[C@@H]1[C@H]2[C@H](OC(=O)/C=C/c3ccccc3)[C@H](OC(=O)c3ccccc3)[C@]3(C)[C@@H](OC(C)=O)CC[C@](C)(O)[C@@]13OC2(C)C (stereo partly drawn) > 60 µM

src = ChEMBL document CHEMBL3774328
